Biological target: wt human TYK2, catalytic site (Homo sapiens)
Construct: wt human TYK2, catalytic site
Sequence (P29597 897-1176 limits assumed): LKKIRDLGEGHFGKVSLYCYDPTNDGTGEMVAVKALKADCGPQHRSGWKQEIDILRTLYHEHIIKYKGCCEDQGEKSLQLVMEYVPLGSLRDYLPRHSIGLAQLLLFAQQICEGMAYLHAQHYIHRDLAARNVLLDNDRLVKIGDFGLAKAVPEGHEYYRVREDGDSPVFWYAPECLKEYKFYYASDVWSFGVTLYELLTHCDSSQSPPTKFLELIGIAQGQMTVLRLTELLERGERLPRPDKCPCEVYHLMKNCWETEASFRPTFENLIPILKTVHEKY
Test: HTRF KinEASE assay, TYK2
Settings: 1 μM ATP; read-out: IC50, Activity Toward TYK2
measured_attribute: IC50

Below are worked cases with known answers.
CCNC(=O)c1ccc(Nc2cn(-c3c(F)cccc3Cl)nc2C(N)=O)cc1 [compound 40] = 0.01 to 0.1 µM
CN1CCC(NC(=O)c2ccc(Nc3cn(-c4c(Cl)cccc4Cl)nc3C(N)=O)cc2)CC1 [compound 31] = 0.01 to 0.1 µM
NC(=O)c1nn(-c2c(Cl)cccc2Cl)nc1Nc1ccc(C(=O)NCCF)cc1 [compound 128] = < 0.01 µM
CC(C)n1ncnc1-c1ccc(Nc2cn(-c3c(F)cccc3Cl)nc2C(N)=O)cc1 [compound 211] = 0.01 to 0.1 µM
Cn1ccnc1-c1ccc(Nc2cn(-c3c(Cl)cccc3Cl)nc2C(N)=O)cc1 [compound 225] = 0.01 to 0.1 µM

Enquiry: Quickly give me recorded IC50 for CC1(C)CN(C(=O)c2ccc(Nc3nn(-c4c(Cl)cccc4Cl)nc3C(N)=O)cc2)C1 [compound 166]
Return: 0.01 to 0.1 µM

Enquiry: Check the records and state IC50 for N#Cc1cccc(F)c1-n1nc(Nc2ccc(C(=O)N3CC[C@@H](F)C3)cc2)c(C(N)=O)n1 [compound 164]
Return: 0.01 to 0.1 µM

Enquiry: State its IC50: Cc1cccc2nnc(-c3ccc(Nc4cn(-c5c(Cl)cccc5Cl)nc4C(N)=O)cc3)n12 [compound 376]
Return: 0.01 to 0.1 µM

====

Below is a list of entries, each paired with its recorded IC50 value.
Molecular target: wt human TYK2, catalytic site (Homo sapiens)
Construct: wt human TYK2, catalytic site
Test: HTRF KinEASE assay, TYK2
Details: 1 μM ATP; read-out: IC50, Activity Toward TYK2

NC(=O)c1nn(-c2c(Cl)cccc2Cl)cc1Nc1ccc(-n2ncc3c2CCOC3)cc1 = 10 to 100 nM
Cn1cc(Nc2cn(-c3c(F)cccc3Cl)nc2C(N)=O)cn1 = 10 to 100 nM
NC(=O)c1nn(-c2c(Cl)cccc2Cl)cc1Nc1ccc(C(=O)N2CC(C(N)=O)C2)cc1 = < 10 nM
NC(=O)c1nn(-c2c(Cl)cccc2Cl)cc1Nc1ccc(-c2nnc3cncc(C(F)(F)F)n23)nc1 = 10 to 100 nM
Cc1ncnn1-c1ccc(Nc2cn(-c3c(Cl)cccc3Cl)nc2C(N)=O)nc1 = 100 to 1000 nM

Enquiry: For NC(=O)c1nn(-c2c(Cl)cccc2Cl)cc1Nc1ccc(-c2nncn2/C=C/F)cc1 , write its IC50.
Return: < 10 nM

Enquiry: Look up and report measured IC50 for this entry: Cc1cnnc(-c2ccc(Nc3cn(-c4c(Cl)cccc4Cl)nc3C(N)=O)cc2)c1C
Return: 10 to 100 nM

Enquiry: Please give the documented IC50 of NC(=O)c1nn(-c2c(Cl)cccc2Cl)cc1Nc1ccc(C(=O)N2CCC(F)C2)cc1 (stereo not shown)
Return: 10 to 100 nM

Enquiry: Give the reported value of IC50 for this record: CCc1nnnn1-c1ccc(Nc2cn(-c3c(Cl)cccc3Cl)nc2C(N)=O)cc1
Return: < 10 nM

====

Listed next: entries and their corresponding pIC50.
Target: wt human JAK1, catalytic site (Homo sapiens, UniProt P23458)
Construct: wt human JAK1, catalytic site
Sequence (P23458 875-1153 limits assumed): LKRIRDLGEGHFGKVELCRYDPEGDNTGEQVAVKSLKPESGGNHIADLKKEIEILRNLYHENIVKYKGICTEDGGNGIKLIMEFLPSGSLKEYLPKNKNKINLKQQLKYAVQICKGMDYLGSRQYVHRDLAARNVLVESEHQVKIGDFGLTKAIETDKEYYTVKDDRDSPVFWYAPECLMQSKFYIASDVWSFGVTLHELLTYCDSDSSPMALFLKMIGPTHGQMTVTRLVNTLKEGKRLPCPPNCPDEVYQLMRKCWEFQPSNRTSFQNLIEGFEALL
Assay: HTRF KinEASE assay, JAK1
Details: 2.5 μM ATP; read-out: IC50, Activity Toward JAK1
pIC50: −log10 of the molar value.

CCn1cc(C#N)nc1-c1ccc(Nc2cn(-c3c(Cl)cccc3Cl)nc2C(N)=O)cc1 [compound 310] = 7.00 to 8.00
Cc1nnnn1-c1ccc(Nc2cn(-c3c(Cl)cccc3Cl)nc2C(N)=O)nc1 [compound 435] = 7.00 to 8.00
COCn1cc(C(F)(F)F)nc1-c1ccc(Nc2cn(-c3c(Cl)cccc3Cl)nc2C(N)=O)cc1 [compound 292] = 7.00 to 8.00
NC(=O)c1nn(-c2c(Cl)cccc2Cl)cc1Nc1ccc(-n2nc(C(F)(F)F)nc2CO)nc1 [compound 385] = 6.00 to 7.00
CCN(CC)CCNC(=O)c1ccc(Nc2cn(-c3c(Cl)cccc3Cl)nc2C(N)=O)cc1 [compound 422] = 7.00 to 8.00

Enquiry: Tell me pIC50 reported for NC(=O)c1nn(-c2c(Cl)cc(F)cc2Cl)cc1Nc1ccc(C(=O)N2CCOCC2)cc1 [compound 412]
Return: 7.00 to 8.00

Enquiry: For the molecule NC(=O)c1nn(-c2c(Cl)cccc2Cl)cc1Nc1ccc(-c2nnc3n2CCOC3)cc1 [compound 57] , report pIC50.
Return: 6.00 to 7.00

Enquiry: Fill in reported pIC50 for this entry: CN(C)C1CCN(C(=O)c2ccc(Nc3cn(-c4c(Cl)cccc4Cl)nc3C(N)=O)nc2)CC1 [compound 442]
Return: 6.00 to 7.00

Enquiry: # return recorded pIC50 for entry CN(C)[C@@H]1CCN(C(=O)c2ccc(Nc3cn(-c4c(Cl)cccc4Cl)nc3C(N)=O)cc2)C1 [compound 313]
Return: 7.00 to 8.00

Enquiry: Consider the molecule NC(=O)c1nn(-c2c(Cl)cccc2Cl)cc1Nc1ccc(N2CCCS2(=O)=O)cc1 [compound 272] and give its recorded pIC50.
Return: 7.00 to 8.00

====

Target: wt human JAK1, catalytic site (Homo sapiens)
Construct: wt human JAK1, catalytic site
Test: HTRF KinEASE assay, JAK1
Settings: 2.5 μM ATP; read-out: IC50, Activity Toward JAK1
measured_attribute: IC50

N=S1(=O)CCN(C(=O)c2ccc(Nc3cn(-c4c(Cl)cccc4Cl)nc3C(N)=O)cc2)CC1 [compound 468] = < 10 nM
NC(=O)c1nn(-c2c(Cl)cccc2Cl)cc1Nc1ccc(C(=O)N2CCN(C3CC3)CC2)nc1 [compound 364] = 100 to 1000 nM
Cn1cnnc1-c1ccc(Nc2cn(-c3c(Cl)cccc3Cl)nc2C(N)=O)cc1 [compound 88] = 10 to 100 nM

// below: IC50 requested for another compound
Enquiry: State its IC50: Cc1ccncc1-c1ccc(Nc2cn(-c3c(Cl)cccc3Cl)nc2C(N)=O)cn1 [compound 394]
Return: 100 to 1000 nM

====

In this section we review reported IC50 values for a set of compounds.
Molecular target: wt human JAK1, catalytic site (Homo sapiens, UniProt P23458)
Construct: wt human JAK1, catalytic site
Test: HTRF KinEASE assay, JAK1
Settings: 2.5 μM ATP; read-out: IC50, Activity Toward JAK1

NC(=O)c1nn(-c2c(Cl)cccc2Cl)nc1Nc1ccc(-c2nnc3n2CCCC3)cc1 [compound 109] = 10 to 100 nM
COc1cc(Cl)c(-n2nc(Nc3ccc(C(=O)N4CCSCC4)cc3)c(C(N)=O)n2)c(Cl)c1 [compound 176] = 10 to 100 nM
CC(C)n1ncnc1-c1ccc(Nc2cn(-c3c(F)cccc3F)nc2C(N)=O)cc1 [compound 309] = 100 to 1000 nM
NC(=O)c1nn(-c2c(Cl)cccc2Cl)nc1Nc1ccc(OC2CCNCC2)cc1 [Compound No. 120] = 10 to 100 nM

Enquiry: Supply IC50 measured with wt human JAK1, catalytic site (Homo sapiens, UniProt P23458) for Cn1cc(Nc2cn(-c3c(F)cccc3Cl)nc2C(N)=O)cn1 [compound 359] .
Return: 10 to 100 nM

Enquiry: Consider the compound CCc1ncnn1-c1ccc(Nc2cn(-c3c(Cl)cccc3Cl)nc2C(N)=O)cc1 [compound 291] tested on wt human JAK1, catalytic site (Homo sapiens, UniProt P23458); state its IC50.
Return: < 10 nM

Enquiry: State, for wt human JAK1, catalytic site (Homo sapiens, UniProt P23458), measured IC50 of the compound listed here: NC(=O)c1nn(-c2c(Cl)cccc2Cl)cc1Nc1cnc(C(=O)N2CCOCC2)cn1 [compound 401]
Return: 100 to 1000 nM

Enquiry: Enter IC50 (test system wt human JAK1, catalytic site (Homo sapiens, UniProt P23458)) for NC(=O)c1nn(-c2c(Cl)cccc2Cl)nc1Nc1ccc(C(=O)N2CC(O)C2)cn1 [compound 154]
Return: 10 to 100 nM

Enquiry: // fetch IC50; item: CCc1ccnn1-c1ccc(Nc2cn(-c3c(F)cccc3Cl)nc2C(N)=O)cc1 [compound 286] ; system: wt human JAK1, catalytic site (Homo sapiens, UniProt P23458)
Return: 100 to 1000 nM

====

Molecular target: wt human JAK1, catalytic site (Homo sapiens)
Construct: wt human JAK1, catalytic site
Assay: HTRF KinEASE assay, JAK1
Conditions: 2.5 μM ATP; read-out: IC50, Activity Toward JAK1
IC50 overview

Completed entries (count: 5):
CC(=O)N1CC(n2cc(C(F)(F)F)nc2-c2ccc(Nc3cn(-c4c(Cl)cccc4Cl)nc3C(N)=O)cc2)C1 = 100 to 1000 nM
NC(=O)c1nn(-c2c(F)cccc2Cl)cc1Nc1ccc(C(=O)N2CCCCC2)cc1 = 10 to 100 nM
NC(=O)c1nn(-c2c(F)cccc2F)cc1Nc1cccc(C(=O)N2CCOCC2)c1 = 100 to 1000 nM
CCc1nc(C(F)(F)F)nn1-c1ccc(Nc2cn(-c3c(F)cccc3Cl)nc2C(N)=O)cc1 = 100 to 1000 nM
CN1CCn2c(nnc2-c2ccc(Nc3cn(-c4c(Cl)cccc4Cl)nc3C(N)=O)cc2)C1 = 10 to 100 nM

Enquiry: Tell me its IC50 given CN1CCCN(C(=O)c2ccc(Nc3cn(-c4c(Cl)cccc4Cl)nc3C(N)=O)nc2)CC1 as the entry.
Return: 10 to 100 nM

Enquiry: Give IC50 for the following compound: N#Cc1cn(C2COC2)c(-c2ccc(Nc3cn(-c4c(Cl)cccc4Cl)nc3C(N)=O)cc2)n1
Return: 100 to 1000 nM

Enquiry: Give IC50 for the following compound: Cn1cc(Nc2cn(-c3c(Cl)cccc3Cl)nc2C(N)=O)cn1
Return: 10 to 100 nM
